B1: NF2 (merlin) isoform 7, human, full length (507 aa, lacks exons 2-3 = isoform-1 residues 39-121; exon-16 C-terminus), P35240-4 (parent)
chain: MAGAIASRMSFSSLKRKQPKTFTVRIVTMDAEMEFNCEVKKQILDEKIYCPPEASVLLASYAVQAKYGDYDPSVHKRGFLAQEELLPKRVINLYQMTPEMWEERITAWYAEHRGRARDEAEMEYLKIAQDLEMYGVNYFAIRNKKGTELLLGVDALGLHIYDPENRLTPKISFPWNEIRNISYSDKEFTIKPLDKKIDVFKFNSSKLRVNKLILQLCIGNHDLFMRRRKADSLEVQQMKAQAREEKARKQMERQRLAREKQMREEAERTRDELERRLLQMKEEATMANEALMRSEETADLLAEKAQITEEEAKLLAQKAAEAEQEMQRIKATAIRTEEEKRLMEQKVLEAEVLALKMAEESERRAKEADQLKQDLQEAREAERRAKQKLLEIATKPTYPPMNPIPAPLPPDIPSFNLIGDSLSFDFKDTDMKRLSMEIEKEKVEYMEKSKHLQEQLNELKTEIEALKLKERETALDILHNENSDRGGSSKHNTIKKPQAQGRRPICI

Variants of: B1
assayExplanation: reverse yeast two-hybrid deep mutational scan (rY2H-seq): NF2 isoform 7 mutant library as bait mated with wild-type prey strains; selection on medium lacking adenine for non-interacting pairs; NextSeq paired-end sequencing; enrichment vs …
statedConditions: with EMILIN1 (elastin microfibril interfacer 1), Q9Y6C2; yeast diploids after mating (RBait_S3 x RPrey_S3), 30 °C, selection for reporter genes on NB agar; human tyrosine kinase ABL2 co-expressed as the active kinase …; HIGHER = WEAKER BINDING (the opposite of display enrichments): higher = stronger loss of interaction: reverse Y2H selects yeast in which bait and prey do NOT interact (growth without adenine), so a …; hits-only table; scale: rY2H score; numbering: uniprot, sequence starts at 1
Classes are defined on enrichment with ranges bottom end = under 2, midrange = from 2 up to 5, top end = 5 and over

* Q376K | midrange

GET /class?item= `L348K`
midrange

# classify by enrichment band: `K144L`
midrange

Given `D162P` , name the class its enrichment places it in.
midrange

Form: Item = `L355E` ; Class = ?
bottom end

Any idea which band `D198N` is in?
bottom end
